# remaining target (mRNA or protein) (fraction of control) listing for each entry below
- tested target: GNAS; note: test concentration or dose not given here
- test context: ASO
These antisense oligonucleotides have a phosphorothioate backbone; sugars and methylation of C are not fully specified.
experimental readout: remaining target (mRNA or protein) (fraction of control)

| ordered residues | readout relation | assay result |
| --- | --- | --- |
| TGCCTTCTCACTGTCTCCAT | = | 0.75 |
| GCTGCTGTTTTATTTATTTT | = | 0.75 |
| CTGCTGCTGTTTTATTTATT | = | 0.63 |
| GAATGATGTCACGGCAGTCG | = | 0.39 |
| TTTGCTGCTGCTGTTTTATT | = | 0.66 |
| TTTGTTTGCTGCTGCTGTTT | = | 0.96 |
| TACTGAAAGTGAGAGGGAAC | = | 0.65 |
| GGGTTTCGCAAAATCACTCG | = | 0.61 |
| TGTTCTCAGTGTCCACAGCG | = | 0.39 |
| TTTCATTTTATTTGTTTGCT | ≥ | 1 |
| CATTTGTTTCTTTTATTTCA | = | 0.65 |
| TTTATTTCATTTTATTTGTT | ≥ | 1 |
| TGAATGATGTCACGGCAGTC | = | 0.69 |
| CGCAGGTGAAATGAGGGTAG | = | 0.35 |
| TTTATTTCATTTGTTTCTTT | = | 0.93 |
| CGGCGGATGTTCTCAGTGTC | = | 0.32 |
